Exercise: state measured inhibition for each of the compounds provided.
Measured on: Glycogen synthase kinase-3 beta (Homo sapiens)
Condition set: at 0.1 µM;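 note: values are mean percent inhibition of GSK3B activity, from the GSK Published Kinase Inhibitor Set (PKIS) screening dataset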
Numbers only, in %.

[[record]]
molecular_string = "COc1cc2ncnc(Nc3ccc(C)c(O)c3)c2cc1OC"
unit = "%"
reported_result = 4.62

[[record]]
molecular_string = "COc1cc(Nc2nccc(-c3cnn4ncccc34)n2)cc(OC)c1"
unit = "%"
reported_result = 60.2

[[record]]
molecular_string = "COc1cccc(-n2ncc3c(N/N=C/c4ccc(S(C)(=O)=O)cc4)ncnc32)c1"
unit = "%"
reported_result = 70.4

[[record]]
molecular_string = "CN(C)CCCn1c(-c2nonc2N)nc2cnccc21"
unit = "%"
reported_result = 2.77

[[record]]
molecular_string = "Cc1ccc(Nc2ccnc(Nc3cccc(C(N)=O)c3)n2)cc1O"
unit = "%"
reported_result = 0.74

[[record]]
molecular_string = "CN(C)C(=O)O[C@@H]1CN[C@@H](C#Cc2cc3ncnc(Nc4ccc(OCc5cccc(F)c5)c(Cl)c4)c3s2)C1"
unit = "%"
reported_result = 1.37


Value sought for every listed compound: inhibition.
1. NS(=O)(=O)c1ccc(-c2cc3ccncc3cc2OCc2ccccc2)cc1
2. Nc1nccc(-c2c(-c3ccc(F)cc3)ncn2CCCN2CCOCC2)n1
3. NC(=O)c1sc(-n2cnc3ccccc32)cc1OCc1ccccc1Br
4. O=C1Nc2ccccc2/C1=C/Nc1ccc2[nH]c(=O)[nH]c2c1

Response:
2.08
0.93
4.55
2.99
